assay: qHTS RealTime-Glo MT Cell Viability Assay in HepG2 cells - 40 hour (AID 1224870); settings: RealTime-Glo luminescence; series mostly up to 76.8 µM; further: nearly all actives have a fitted effect of over 50% in size
Results filed as inconclusive are left out. Calls of active or inactive are those of the source. The call rests on the fitted dose curve; in most records, active means well fitted cell-killing curve with a large enough effect in the repeat runs; inconclusive means weak or mixed curves, or effect the other way; inactive means flat fitted curve, though single readings scatter.
Just give me one of these, please: active, inactive

Returns: the outcome recorded for `O=C(Oc1ccc(Br)cc1)N1CCN2CCC1CC2` in this assay. inactive

Returns: the outcome recorded for `CN1CCN(C(=O)O[C@H]2c3nccnc3C(=O)N2c2ccc(Cl)cn2)CC1` in this assay. inactive

Returns: the outcome recorded for `C[C@]12CC[C@H]3[C@@H](CC=C4C[C@@H](O)CC[C@@]43C)[C@@H]1CC[C@@H]2O` in this assay. inactive

Returns: the outcome recorded for `[As]#[In]` in this assay. inactive

Returns: the outcome recorded for CCCSP(=S)(OCC)Oc1ccc(Cl)cc1Cl (stereo unspecified) in this assay. inactive

Returns: the outcome recorded for N#CC(CCc1ccc(Cl)cc1)(Cn1cncn1)c1ccccc1 (stereo unspecified) in this assay. active

Returns: the outcome recorded for `O=C(Cc1ccccc1)OCc1ccccc1` in this assay. inactive

Returns: the outcome recorded for `O=S(=O)(O)C(F)(F)C(F)(F)C(F)(F)C(F)(F)C(F)(F)C(F)(F)F` in this assay. inactive

Returns: the outcome recorded for `COC(=O)COc1ccc(Cl)cc1Cl` in this assay. inactive

Returns: the outcome recorded for `CCS(=O)(=O)CCSP(=O)(OC)OC` in this assay. inactive

Returns: the outcome recorded for `Cc1ncc(CNC(=O)N(CCCl)N=O)c(N)n1` in this assay. inactive

Returns: the outcome recorded for O=C1OC(=O)C2C1C1(Cl)C(Cl)=C(Cl)C2(Cl)C1(Cl)Cl (stereo unspecified) in this assay. inactive

Returns: the outcome recorded for `CCCCP(CCCC)CCCC` in this assay. inactive

Returns: the outcome recorded for `CC(=O)Nc1cc([As](=O)(O)O)ccc1O` in this assay. inactive

Returns: the outcome recorded for `COCC(=O)N(c1c(C)cccc1C)N1CCOC1=O` in this assay. inactive

Returns: the outcome recorded for `N#CCNCC#N` in this assay. inactive

Returns: the outcome recorded for `c1cc2c(c(N3CCNCC3)c1)OCCO2` in this assay. inactive

Returns: the outcome recorded for `C[N+](C)=CCl` in this assay. inactive

Returns: the outcome recorded for `CC1(C)C(=O)NC(=O)NC1=O` in this assay. inactive

Returns: the outcome recorded for `CCC(=O)C(CCN(C)C)(c1ccccc1)c1ccccc1` in this assay. inactive

Returns: the outcome recorded for `CCN(CC)C(=O)[C@@H]1C=C2c3cccc4[nH]cc(c34)C[C@H]2N(C)C1` in this assay. inactive

---

assay: qHTS assay to identify aromatase inhibitors - cell viability counter screen (AID 743084); settings: MCF-7 aro ERE viability, CellTiter-Fluor, 24 h; series mostly up to 70.3 µM;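 further: cells stimulated with testosterone during compound exposure; nearly all actives have a fitted effect of over 55% in size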
Records with an inconclusive call do not appear. Calls of active or inactive are those of the source. The call rests on the fitted dose curve; in most records, active means well fitted cell-killing curve with a large enough effect in the repeat runs; inconclusive means weak or mixed curves, or effect the other way; inactive means no such curve, though single readings can be large or run the other way.
Just give me one of these, please: label 1 for active, label 0 for inactive

Returns: the outcome recorded for `CCC(=O)c1ccccc1` in this assay. label 0

Returns: the outcome recorded for N#CC(O)c1ccccc1 (stereo not drawn) in this assay. label 0

Returns: the outcome recorded for `CNC(=O)Oc1c(C(C)(C)C)cc(C)cc1C(C)(C)C` in this assay. label 0

Returns: the outcome recorded for `CC(C)CP(=S)(S)CC(C)C` in this assay. label 0

Returns: the outcome recorded for `CCCCCCI` in this assay. label 0

Returns: the outcome recorded for `Nc1n[nH]c(N)n1` in this assay. label 0

Returns: the outcome recorded for `CCCCc1ccc(O)cc1` in this assay. label 0

Returns: the outcome recorded for OC(Cn1cncn1)(c1ccc(F)cc1)c1ccccc1F (stereo not drawn) in this assay. label 0

Returns: the outcome recorded for `CSc1nc(N=[N+]=[N-])nc(NC(C)C)n1` in this assay. label 0

Returns: the outcome recorded for `CC(Cl)(Cl)[N+](=O)[O-]` in this assay. label 0

Returns: the outcome recorded for `CN(N=O)C(N)=O` in this assay. label 0

Returns: the outcome recorded for `CC1=C(C(=O)Nc2ccccc2)S(=O)(=O)CCO1` in this assay. label 1

Returns: the outcome recorded for CC(CC(C#N)(c1ccccc1)c1ccccc1)N(C)C (stereo not drawn) in this assay. label 0

Returns: the outcome recorded for `N#Cc1ccncc1` in this assay. label 0

Returns: the outcome recorded for `CCC(C)(C)c1cc(-n2nc3ccccc3n2)c(O)c(C(C)(C)CC)c1` in this assay. label 0

Returns: the outcome recorded for CC(=O)CC(c1ccc(Cl)cc1)c1c(O)c2ccccc2oc1=O (stereo not drawn) in this assay. label 0

Returns: the outcome recorded for CC(C)(C)C(=O)C(Oc1ccc(Cl)cc1)n1cncn1 (stereo not drawn) in this assay. label 0

Returns: the outcome recorded for `ClCC(Cl)(Cl)Cl` in this assay. label 0

Returns: the outcome recorded for `CNC(=O)N(C)c1nc2ccccc2s1` in this assay. label 0

Returns: the outcome recorded for `ClC(Cl)Br` in this assay. label 0

Returns: the outcome recorded for `COc1ccc(C(=O)N2CCCC2=O)cc1` in this assay. label 0

Returns: the outcome recorded for `CC1(C)COP(Oc2ccccc2)OC1` in this assay. label 0

Returns: the outcome recorded for `Cc1ncc2n1-c1ccc(Cl)cc1C(c1ccccc1F)=NC2` in this assay. label 0

Returns: the outcome recorded for `ClCCOCOCCCl` in this assay. label 0

Returns: the outcome recorded for O=C1OC(=O)C2C1C1(Cl)C(Cl)=C(Cl)C2(Cl)C1(Cl)Cl (stereo not drawn) in this assay. label 0

Returns: the outcome recorded for C(CCOCC1CO1)COCC1CO1 (stereo not drawn) in this assay. label 0

Returns: the outcome recorded for `COC(=O)c1c(C(F)F)nc(C(F)(F)F)c(C2=NCCS2)c1CC(C)C` in this assay. label 0

Returns: the outcome recorded for `CCCCP(CCCC)CCCC` in this assay. label 0

---

target: Cytochrome P450 2D6 (Homo sapiens); assay: Cytochrome P450 Family 2 Subfamily D Member 6 (CYP2D6) small molecule antagonists: luciferase reporter qHTS assay (AID 1671196); details: P450-Glo CYP2D6 enzyme assay, luciferin luminescence, 1 h; series mostly up to 115 µM; further: nearly all actives have a fitted effect of over 50% in size
Records with an inconclusive call do not appear. The source made the active and inactive calls. Calls follow the shape of the dose curve; as a rule, active = well fitted inhibition curve with a large enough effect in the repeat runs; inconclusive = weak or mixed curves; inactive = no such curve, though single readings can be large or run the other way.
Just give me one of these, please: yes (1) for active, no (0) for inactive

Returns: the outcome recorded for COC(=O)C(C)Oc1ccc(Oc2ccc(Cl)cc2Cl)cc1 (stereo not drawn) in this assay. no (0)

Returns: the outcome recorded for CC1COC2(c3ccccc3Cl)c3cc(Cl)ccc3NC(=O)CN12 (stereo not drawn) in this assay. yes (1)

Returns: the outcome recorded for `CN1CCN(C(=O)O[C@H]2c3nccnc3C(=O)N2c2ccc(Cl)cn2)CC1` in this assay. no (0)

Returns: the outcome recorded for `CNCC(=O)c1ccc(O)c(O)c1` in this assay. no (0)

Returns: the outcome recorded for `NC(=O)O` in this assay. no (0)

Returns: the outcome recorded for CC(COc1ccc(Oc2ccccc2)cc1)Oc1ccccn1 (stereo not drawn) in this assay. no (0)

Returns: the outcome recorded for `[As]#[In]` in this assay. no (0)

Returns: the outcome recorded for `O=C(NCO)NCO` in this assay. no (0)

Returns: the outcome recorded for `COC(=O)c1ccccc1S(=O)(=O)NC(=O)Nc1nc(C)cc(C)n1` in this assay. no (0)

Returns: the outcome recorded for `CCOP(=S)(OCC)Oc1cc(-c2ccccc2)on1` in this assay. yes (1)

Returns: the outcome recorded for OC(Cn1cncn1)(c1ccc(F)cc1)c1ccccc1F (stereo not drawn) in this assay. yes (1)

Returns: the outcome recorded for `N#CCNCC#N` in this assay. no (0)

Returns: the outcome recorded for `COC(=O)c1ccccc1S(=O)(=O)NC(=O)N(C)c1nc(C)nc(OC)n1` in this assay. no (0)

Returns: the outcome recorded for CC(=O)CC(c1ccc(Cl)cc1)c1c(O)c2ccccc2oc1=O (stereo not drawn) in this assay. no (0)

Returns: the outcome recorded for `CCCCc1ccc(O)cc1` in this assay. no (0)

Returns: the outcome recorded for `CCOP(=S)(OCC)SCSP(=S)(OCC)OCC` in this assay. yes (1)

Returns: the outcome recorded for O=c1oc2ccccc2c(O)c1C1CCCc2ccccc21 (stereo not drawn) in this assay. no (0)

Returns: the outcome recorded for CCC/C(=N\OCC)C1=C(O)CC(CC(C)SCC)CC1=O (stereo not drawn) in this assay. yes (1)

---

experiment: qHTS assay for small molecule agonists of the antioxidant response element (ARE) signaling pathway (AID 743202); settings: HepG2 ARE-bla reporter, beta-lactamase FRET, 16 h; series mostly up to 73.3 µM; on activation: on the % scale 0 is the no-effect control and ±100 the full control effect
Inconclusive results are not listed. Activity calls are given as the source filed them. Calls follow the shape of the dose curve; as a rule, active = well fitted activation curve with a large enough effect in the signal ratio in the repeat runs (not every such curve was filed as active); inconclusive = weak or mixed curves, or effect the other way; inactive = no such curve, though single readings can be large or run the other way; the % refers to the signal ratio.
Just give me one of these, please: active, inactive

Returns: the outcome recorded for `NC(=O)O` in this assay. inactive

Returns: the outcome recorded for CC(C)NCC(O)c1ccc(N)c(C#N)c1 (stereo unspecified) in this assay. inactive

Returns: the outcome recorded for `Cc1ccccc1CO[C@@H]1C[C@@]2(C(C)C)CC[C@]1(C)O2` in this assay. inactive

Returns: the outcome recorded for `Nc1cnn(-c2ccccc2)c(=O)c1Cl` in this assay. inactive

Returns: the outcome recorded for `CCCSC(=O)N(CCC)CCC` in this assay. inactive

Returns: the outcome recorded for `CC(=O)CCc1ccc2c(c1)OCO2` in this assay. inactive

Returns: the outcome recorded for `CCCCOP(=O)(O)OCCCC` in this assay. inactive

Returns: the outcome recorded for `CCSC(=O)N(CC)C1CCCCC1` in this assay. inactive

Returns: the outcome recorded for `O=NN1CCCCC1` in this assay. inactive

Returns: the outcome recorded for `ClC(Cl)(Cl)C(Cl)(Cl)Cl` in this assay. inactive

Returns: the outcome recorded for `Clc1cccc(N2CCNCC2)c1` in this assay. inactive

Returns: the outcome recorded for CC(C(=O)c1ccccc1)N(C)C (stereo unspecified) in this assay. inactive

Returns: the outcome recorded for `O=C(Nc1ccccc1)c1ccccc1I` in this assay. active

Returns: the outcome recorded for N#CC(O)c1ccccc1 (stereo unspecified) in this assay. inactive

Returns: the outcome recorded for `CN1C[C@@H](NS(=O)(=O)N(C)C)C[C@@H]2c3cccc4c3c(cn4C)C[C@H]21` in this assay. inactive

Returns: the outcome recorded for `c1coc(-c2nc3ccccc3[nH]2)c1` in this assay. inactive
